For each record, write down the corresponding CC-v2 (curve classes).
Where a name gives a salt, the structure may show the parent alone.

QUERY: State measured CC-v2 (curve classes) of the compound CCOP(=S)(Oc1ccc([N+](=O)[O-])cc1)c1ccccc1 (stereo not drawn) with recombinant human AChE (Homo sapiens).
Sequence (P22303 32-614): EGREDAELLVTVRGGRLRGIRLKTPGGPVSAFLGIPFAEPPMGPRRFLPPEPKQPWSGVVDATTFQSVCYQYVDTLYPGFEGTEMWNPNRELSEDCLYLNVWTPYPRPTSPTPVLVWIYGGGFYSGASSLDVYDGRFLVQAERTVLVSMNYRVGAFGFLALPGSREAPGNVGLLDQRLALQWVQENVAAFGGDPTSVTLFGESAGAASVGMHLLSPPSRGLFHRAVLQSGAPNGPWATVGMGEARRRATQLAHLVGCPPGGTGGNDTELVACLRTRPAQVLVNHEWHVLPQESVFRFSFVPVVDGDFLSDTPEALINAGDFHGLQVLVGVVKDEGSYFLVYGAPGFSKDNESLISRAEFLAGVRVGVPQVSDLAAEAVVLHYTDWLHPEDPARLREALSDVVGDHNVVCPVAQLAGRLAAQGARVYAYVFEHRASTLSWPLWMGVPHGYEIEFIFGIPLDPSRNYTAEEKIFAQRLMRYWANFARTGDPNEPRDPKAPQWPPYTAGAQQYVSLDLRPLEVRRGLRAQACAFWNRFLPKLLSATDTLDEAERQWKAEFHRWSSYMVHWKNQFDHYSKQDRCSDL
RESULT: -1.1

QUERY: State measured CC-v2 (curve classes) of the compound CCN=C1C=CC(=C(c2ccc(N(CC)CC)cc2)c2ccc(N(CC)CC)cc2)c2ccccc21.Cl with recombinant human AChE (Homo sapiens).
RESULT: 4

QUERY: State measured CC-v2 (curve classes) of the compound O=c1[nH]c2ccc([S+]([O-])CCN3CCC(Cc4ccc(F)cc4)CC3)cc2o1 (stereo not drawn) [Besonprodil, reference compound] with recombinant human AChE (Homo sapiens).
RESULT: -2.1

QUERY: State measured CC-v2 (curve classes) of the compound CNC(=O)ON=C(CSC)C(C)(C)C with recombinant human AChE (Homo sapiens).
RESULT: -1.1

QUERY: State measured CC-v2 (curve classes) of the compound CCCCOc1ccc(C(=O)CCN2CCCCC2)cc1 [Dyclonine hydrochloride] with recombinant human AChE (Homo sapiens).
RESULT: 4

QUERY: State measured CC-v2 (curve classes) of the compound CCOP(=S)(OCC)SC(CCl)N1C(=O)c2ccccc2C1=O (stereo not drawn) with recombinant human AChE (Homo sapiens).
RESULT: -1.1

QUERY: State measured CC-v2 (curve classes) of the compound CCOP(=O)(OCC)Oc1ccc([N+](=O)[O-])cc1 with recombinant human AChE (Homo sapiens).
RESULT: -1.1

QUERY: State measured CC-v2 (curve classes) of the compound CCOC(=O)CCN(SN(C)C(=O)Oc1cccc2c1OC(C)(C)C2)C(C)C with recombinant human AChE (Homo sapiens).
RESULT: -1.1

QUERY: State measured CC-v2 (curve classes) of the compound Oc1ccc(C(O)CNCCCCCCNCC(O)c2ccc(O)c(O)c2)cc1O (stereo not drawn) [Hexoprenaline sulfate] with recombinant human AChE (Homo sapiens).
RESULT: 4

QUERY: State measured CC-v2 (curve classes) of the compound CCOC(=O)CC(SP(=O)(OC)OC)C(=O)OCC (stereo not drawn) with recombinant human AChE (Homo sapiens).
RESULT: -2.1

QUERY: State measured CC-v2 (curve classes) of the compound CNC(=O)Oc1cccc2c1OC(C)(C)O2 with recombinant human AChE (Homo sapiens).
RESULT: -1.1

QUERY: State measured CC-v2 (curve classes) of the compound O=C1c2c(O)ccc(Nc3ccc(CCO)cc3)c2C(=O)c2c([N+](=O)[O-])ccc(O)c21 with recombinant human AChE (Homo sapiens).
RESULT: 4

QUERY: State measured CC-v2 (curve classes) of the compound CNP(=O)(OC)Oc1ccc(C(C)(C)C)cc1Cl (stereo not drawn) [Crufomate] with recombinant human AChE (Homo sapiens).
RESULT: 4

QUERY: State measured CC-v2 (curve classes) of the compound CN1CCCC(n2nc(Cc3ccc(Cl)cc3)c3ccccc3c2=O)CC1 (stereo not drawn) [Azelastine hydrochloride] with recombinant human AChE (Homo sapiens).
RESULT: 4

QUERY: State measured CC-v2 (curve classes) of the compound Cc1nc2n(c(=O)c1CCN1CCC(c3noc4cc(F)ccc34)CC1)CCCC2 with recombinant human AChE (Homo sapiens).
RESULT: 4

QUERY: State measured CC-v2 (curve classes) of the compound CCOP(=S)(OCC)Oc1cc(Cl)c(Br)cc1Cl with recombinant human AChE (Homo sapiens).
RESULT: -1.1

QUERY: State measured CC-v2 (curve classes) of the compound CCN1C(=CC=Cc2sc3ccccc3[n+]2CC)Sc2ccccc21.[I-] [3,3'-Diethylthiacarbocyanine iodide] with recombinant human AChE (Homo sapiens).
RESULT: 4

QUERY: State measured CC-v2 (curve classes) of the compound CCCCCCCCCC[N+](C)(CCCCCCCCCC)CCC[Si](OC)(OC)OC.[Cl-] [Disiquonium chloride] with recombinant human AChE (Homo sapiens).
RESULT: 4
